Biological target: Pin1_72/14-3-3γ (Homo sapiens, UniProt P61981+Q13526)
Construct: the full length 14-3-3γ was dialysis against 25 mM HEPES pH 7.5; made in house; host or cells: E. coli BL21(DE3), pPROEX HTb
Sequence (P61981 whole entry, other chains not shown): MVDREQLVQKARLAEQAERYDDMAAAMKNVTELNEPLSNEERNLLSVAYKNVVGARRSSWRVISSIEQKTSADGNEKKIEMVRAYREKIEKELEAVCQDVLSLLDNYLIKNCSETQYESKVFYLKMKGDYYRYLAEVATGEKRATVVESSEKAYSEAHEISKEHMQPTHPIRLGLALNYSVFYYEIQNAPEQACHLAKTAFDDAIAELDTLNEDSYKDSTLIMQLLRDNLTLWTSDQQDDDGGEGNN
Test: Fluorescence anisotropy protein titration, Pin1_72/14-3-3γ at constant compound
Type: binding
Conditions: based on internal DMSO control and 100 μM fragment
Simple rule here: SF (fold stabilization) less than 5 is label 1, otherwise label 0.

- smiles_input: "O=Cc1ccc(-n2ccnc2-c2cccnc2)cc1Br"
  qualitative_label: "label 1"
- smiles_input: "O=Cc1ccc(-n2ccnc2-c2ccccc2)cc1C(F)(F)F"
  qualitative_label: "label 1"
- smiles_input: "O=Cc1ccc(-n2ccnc2-c2ccccc2Br)cc1Br"
  qualitative_label: "label 0"
- smiles_input: "O=Cc1ccc(-n2ccnc2-c2ccc(Br)cc2)cc1Br"
  qualitative_label: "label 1"
- smiles_input: "O=Cc1ccc(-n2ccnc2)c(Cl)c1"
  qualitative_label: "label 1"

---

Molecular target: p65_45/14-3-3γ (Homo sapiens, UniProt P61981)
Assay: Fluorescence anisotropy protein titration, p65_45 peptide/14-3-3γ in presence of 1 mM fragment
Type: binding
Design: The full length 14-3-3γ was dialysis against 25 mM HEPES pH7.5; made in house; host or cells: E. coli BL21(DE3), pPROEX HTb
Details: fold-change of apparent KD in comparison to a DMSO control; 1 mM fragment

- molecule: "CN1CCN(S(=O)(=O)c2ccc(C=O)cc2)CC1 [23h]"
  SF: 3.3
- molecule: "Cn1ccc(NS(=O)(=O)c2ccc(C=O)cc2)n1 [23b]"
  SF: 1.5
- molecule: "O=Cc1ccc(S(=O)(=O)N2CCOCC2)cc1 [23u, 4-(morpholine-4-sulfonyl)benzaldehyde]"
  SF: 6.3
- molecule: "CC(=O)N1CCN(S(=O)(=O)c2ccc(C=O)cc2)CC1 [23o]"
  SF: 4.5
- molecule: "O=Cc1ccc(S(=O)(=O)N2CCC(O)CC2)cc1 [23s]"
  SF: 7.2
- molecule: "COCCN1CCN(S(=O)(=O)c2ccc(C=O)cc2)CC1 [23l]"
  SF: 4.5
- molecule: "O=Cc1ccc(S(=O)(=O)N2CCCC(O)C2)cc1 (stereo not shown) [23q]"
  SF: 10.3
- molecule: "COC1CN(S(=O)(=O)c2ccc(C=O)cc2)C1 [23d]"
  SF: 5.1
- molecule: "CC(C)N1CCN(S(=O)(=O)c2ccc(C=O)cc2)CC1 [23j]"
  SF: 5.5
- molecule: "O=Cc1ccc(S(=O)(=O)N2CCNC(=O)C2)cc1 [23p]"
  SF: 2.2

---

Target: p65_45/14-3-3γ (Homo sapiens)
Test: Fluorescence anisotropy compound titration, p65_45 peptide with 50 μM 14-3-3γ (CC50)
# note: boundary value 200 µM maps to FALSE; EC50 below it maps to TRUE

- compound: "O=Cc1ccc(S(=O)(=O)N2CCc3ccccc3C2)cc1 [23y]"
  qualitative_label: "TRUE"
- compound: "O=Cc1ccc(S(=O)(=O)N2CCc3ccccc32)cc1 [24a]"
  qualitative_label: "FALSE"
- compound: "COc1ccc2c(c1)CCCN2S(=O)(=O)c1ccc(C=O)cc1 [24e]"
  qualitative_label: "TRUE"
- compound: "CC1CCc2ccccc2N1S(=O)(=O)c1ccc(C=O)cc1 (racemic) [24b]"
  qualitative_label: "FALSE"
- compound: "O=Cc1ccc(S(=O)(=O)N2CCCc3cc(F)ccc32)cc1 [24c]"
  qualitative_label: "TRUE"
- compound: "O=Cc1ccc(S(=O)(=O)N2CCOc3cc(Cl)ccc32)cc1 [24h]"
  qualitative_label: "FALSE"
- compound: "O=Cc1ccc(S(=O)(=O)N2CCOc3ccccc32)cc1 [24f]"
  qualitative_label: "FALSE"
- compound: "O=Cc1ccc(S(=O)(=O)N2CCOc3ccc(F)cc32)cc1 [24g]"
  qualitative_label: "FALSE"
- compound: "O=Cc1ccc(S(=O)(=O)N2CCCc3cc(Cl)ccc32)cc1 [24d]"
  qualitative_label: "TRUE"
- compound: "COc1ccc2c(c1)OCCN2S(=O)(=O)c1ccc(C=O)cc1 [24i]"
  qualitative_label: "TRUE"

Data origin, for the record: patent US20230142739A1
